biological target: human LPA1 (Homo sapiens, UniProt Q92633); test: LPA1 functional antagonist assay (calcium flux); conditions: CHO cells overexpressing human LPA1; inhibition of calcium flux induced by 10 nM LPA; read-out: hLPA1 IC50
Sequence (Q92633 whole entry): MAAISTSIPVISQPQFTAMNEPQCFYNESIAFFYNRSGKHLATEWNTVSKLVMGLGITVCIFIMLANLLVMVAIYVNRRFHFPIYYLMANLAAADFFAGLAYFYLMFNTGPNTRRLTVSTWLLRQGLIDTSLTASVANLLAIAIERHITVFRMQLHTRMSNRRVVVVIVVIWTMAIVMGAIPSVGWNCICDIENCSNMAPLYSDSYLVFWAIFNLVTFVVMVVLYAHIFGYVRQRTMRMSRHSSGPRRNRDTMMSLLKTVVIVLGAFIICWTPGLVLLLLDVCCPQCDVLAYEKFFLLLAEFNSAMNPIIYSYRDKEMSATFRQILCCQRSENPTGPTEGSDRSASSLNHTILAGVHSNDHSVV
quantity name: IC50 (nM)

QUERY: Param readout= IC50; system= human LPA1 (Homo sapiens, UniProt Q92633); entry= Cc1nc(-c2nnn(C)c2NC(=O)OCC2CC2)ccc1O[C@@H]1CC[C@H]2C(C(=O)O)[C@@H]12 (mixture of isomers) ; returns value.
RESULT: 1720

QUERY: Param readout= IC50; system= human LPA1 (Homo sapiens, UniProt Q92633); entry= Cc1nc(-c2nnn(C)c2COC(=O)N(C)CC(C)C)ccc1O[C@@H]1CC[C@H]2C(C(=O)O)[C@@H]12 (stereo partly shown) ; returns value.
RESULT: 313

QUERY: Param readout= IC50; system= human LPA1 (Homo sapiens, UniProt Q92633); entry= CN(CC1CCC1)C(=O)OCc1c(-c2ccc(OC3CC4C(C3)C4C(=O)O)cn2)nnn1C (stereo not shown) ; returns value.
RESULT: 322

QUERY: Param readout= IC50; system= human LPA1 (Homo sapiens, UniProt Q92633); entry= Cc1nc(-c2nnn(C)c2COC(=O)N(C)CC2CCC2)ccc1O[C@H]1CCO[C@H](C(=O)O)C1 ; returns value.
RESULT: 158

QUERY: Param readout= IC50; system= human LPA1 (Homo sapiens, UniProt Q92633); entry= Cc1nc(-c2nnn(C)c2CNC(=O)OCC(C)(C)C)ccc1O[C@@H]1CCC2C(C(=O)O)C21 (stereo partly shown) ; returns value.
RESULT: 275

a = Cc1nc(-c2nnn(C)c2COC(=O)N(C)CC2CCC2)ccc1O[C@H]1CCC[C@]2(C(=O)O)C[C@H]12 (single isomer, unassigned)
b = CCCOc1ccnc(NCc2c(-c3ccc(O[C@@H]4CC[C@H]5C(C(=O)O)[C@@H]45)c(C)n3)nnn2C)n1 (stereo partly shown)
QUERY: Between a and b , which one shows the larger IC50 value? Answer by stating the label of the chosen item.
RESULT: a

---

target: human LPA1 (Homo sapiens); construct: expressed in transfected cells; host or cells: Chinese hamster ovary (CHO) cells; test: LPA1 functional antagonist assay (calcium flux); type: cell-based; settings: CHO cells overexpressing human LPA1; inhibition of calcium flux induced by 10 nM LPA; read-out: hLPA1 IC50
pIC50: −log10 of the molar value. Structures can show the parent of a compound that is named as a salt.
quantity name: pIC50

Worked examples follow.
QUERY: Value lookup for pIC50; key = Cc1nc(-c2nnn(C)c2COC(=O)N(C)C2CCCC2)ccc1O[C@H]1CCO[C@H](C(=O)O)C1
RESULT: 6.50

QUERY: Value lookup for pIC50; key = Cc1nc(-c2nnn(C)c2COC(=O)N(C)CC2CCC2)ccc1OC1CC[C@H]2C(C(=O)O)[C@@H]12 (mixture of isomers)
RESULT: 7.72

QUERY: Value lookup for pIC50; key = CCCCN(C)C(=O)OCc1c(-c2ccc(O[C@H]3C[C@H](C(=O)O)[C@@H]4C[C@@H]43)c(C)n2)nnn1C
RESULT: 6.84

1 = Cc1nc(-c2nnn(C)c2COC(=O)N(C)CC2CCC2)ccc1O[C@@H]1CC[C@H]2C(C(=O)O)[C@@H]12 (single isomer, unassigned) [Example 44, TFA Salt]
2 = Cc1nc(-c2nnn(C)c2COC(=O)N(C)CC2CCC2)ccc1O[C@H]1CC[C@@H]2[C@@H](C(=O)O)[C@@H]21 (single isomer, unassigned) [Example 43]
QUERY: Between 1 and 2 , which one shows the larger pIC50 value? Answer by stating the label of the chosen item.
RESULT: 2
(2: 7.82, 1: 7.19)

Reference source: patent US12435057B2
